# System: SN12C renal
# assayRemarks: NCI-60 one-dose screen, 48 h (100 = growth as untreated, 0 = no growth, -100 = all killed)
# details: 10 µM unless noted
The panel holds about 83,000 compounds, 20% with a hit somewhere; the sample as a whole holds those more often.
Returns Criterion met if the recorded growth is greater than or equal to 20%, and Criterion not met otherwise.

molecule	label
CC(C)C[C@@H](NC(=O)[C@@H](Cc1ccccc1)NC(=O)c1cnccn1)B1Oc2ccc(C[C@H](NC(=O)[C@H](Cc3ccc4c(c3)OB([C@@H](CC(C)C)NC(=O)[C@@H](Cc3ccccc3)NC(=O)c3cnccn3)O4)NC(=O)[C@@H](N)CC3CCC4OB([C@@H](CC(C)C)NC(=O)[C@@H](CC5CCCCC5)NC(=O)C5CNCCN5)OC4C3)C(=O)NCCCC[C@@H]3NC(=O)[C@@H](Cc4ccccc4)NC(=O)[C@H](CC(=O)O)NC(=O)CNC(=O)[C@H](CCCNC(=N)N)NC3=O)cc2O1 (stereo partly specified)	Criterion not met

// query Does CCCOc1ccc2nc(NC(=O)OC)[nH]c2c1 have a reported growth of at least 20%?
// result Criterion met

// query Does NC1=C(Cl)C(=O)c2ccc(S(N)(=O)=O)cc2C1=O have a reported growth of at least 20%?
// result Criterion not met

// query Does O=C(N/N=C/c1c[nH]c2ccccc12)c1cc(-c2ccccc2)on1 have a reported growth of at least 20%?
// result Criterion met

// query Does Nc1n[nH]c2cc(F)c([C@@H]3Nc4ccc5[nH]ncc5c4[C@H]4C5CCC(C5)[C@@H]34)cc12 (stereo partly specified) have a reported growth of at least 20%?
// result Criterion met

====

# System: MALME-3M melanoma
# assayRemarks: NCI-60 one-dose screen, 48 h (100 = growth as untreated, 0 = no growth, -100 = all killed)
# details: 10 µM unless noted
Compounds without any hit were thinned out: in the full panel of roughly 83,000, 20% have a hit.
measurementLabel: growth (%)
Please respond with the number in % and leave the unit unwritten.

Worked set:
compound	growth, %
COc1ccc(C2C(C#N)=C(N)Oc3n[nH]c(-c4cccs4)c32)cc1I (centres undefined)	102
CCOC(=O)c1sc2nc(-c3cccc(OC)c3)nc(N3CCOCC3)c2c1C	117

// query Return growth for the following compound: Cc1cc(N2CCOCC2)nc(NCc2cc(Nc3ccnc4cc(Cl)ccc34)ccc2F)n1
// result -73.7

// query Return growth for the following compound: COc1cccc(C2=NN3C(C2)c2cc(Br)cc(OC)c2OC32CCN(Cc3ccccc3)CC2)c1 (centres undefined)
// result 99.7

// query Return growth for the following compound: Cc1ccc2oc(=O)cc(C3c4ccc([nH]4)C(c4cc(=O)oc5ccc(C)cc45)c4ccc([nH]4)C(c4cc(=O)oc5ccc(C)cc45)c4ccc([nH]4)C(c4cc(=O)oc5ccc(C)cc45)c4ccc3[nH]4)c2c1 (centres undefined)
// result -35.1

// query Return growth for the following compound: Oc1cccc2ccc(N/N=C/c3cc(CN4CCOCC4)c(O)c4ncccc34)nc12
// result 16.3

// query Return growth for the following compound: C=C1c2nc3ccccc3n2C=C(c2ccc(OC)cc2)N1Cc1ccccc1
// result 109

// query Return growth for the following compound: COc1ccc(/C=C/c2nc(-c3n[nH]c(=O)n3-c3ccccc3)c3ccccc3n2)cc1
// result 94.3

// query Return growth for the following compound: COc1cc2nc(N3CCCC3)nc(Nc3ccccc3)c2cc1OC
// result -85.9
